# procedure.text: Protein binding in plasma (unknown origin) assessed as unbound fraction
# Assay type: ADME, cell-free
measurement.kind: Fu

INSERT INTO results (structure_string, measurement_kind, meas_value) VALUES
  ('CNC(=O)c1cc(C2(C#N)CCC2)cc(NS(=O)(=O)c2cc(Br)cc(Cl)c2O)c1O', 'Fu', '< 0.0006%'),
  ('CS(=O)(=O)c1cc(Cl)cc(NS(=O)(=O)c2cc(Br)cc(Cl)c2O)c1', 'Fu', '0.0007%'),
  ('CNC(=O)c1cc(C2(C#N)CCC2)cc(NS(=O)(=O)c2cc(Br)ccc2O)c1O', 'Fu', '< 0.0006%'),
  ('CNC(=O)c1cc(Cl)cc(NS(=O)(=O)c2cc(Br)ccc2O)c1O', 'Fu', '< 0.0004%'),
  ('O=S(=O)(Nc1cc(Cl)ccc1O)c1cc(Br)ccc1O', 'Fu', '< 0.0026%'),
  ('CNC(=O)c1c(O)c(NS(=O)(=O)c2cc(Br)ccc2O)cc(C2CC2)c1F', 'Fu', '< 0.0002%'),
  ('N#CC1(c2ccc(O)c(NS(=O)(=O)c3cc(Br)ccc3O)c2)CCC1', 'Fu', '< 0.0005%'),
  ('N#CC1(c2cc(NS(=O)(=O)c3cc(Br)cc(Cl)c3O)c(O)c(C(=O)O)c2)CCC1', 'Fu', '< 0.0003%'),
  ('O=C(O)c1c(O)c(NS(=O)(=O)c2cc(Br)ccc2O)cc(C2CC2)c1F', 'Fu', '< 0.0008%'),
  ('CS(=O)(=O)c1cc(Cl)cc(NS(=O)(=O)c2cc(Br)ccc2O)c1', 'Fu', '0.004%'),
  ('CS(=O)(=O)c1cc(S(F)(F)(F)(F)F)cc(NS(=O)(=O)c2cc(Br)cc(Cl)c2O)c1O', 'Fu', '< 0.0003%'),
  ('CS(=O)(=O)c1cc(NS(=O)(=O)c2cc(Br)ccc2O)cc(S(F)(F)(F)(F)F)c1', 'Fu', '0.002%');
